Taken from patent US20240002344A1.

# targetDesc: recombinant human KDM5B (Homo sapiens, UniProt Q9UGL1)
# Sequence (Q9UGL1 374-755 limits assumed): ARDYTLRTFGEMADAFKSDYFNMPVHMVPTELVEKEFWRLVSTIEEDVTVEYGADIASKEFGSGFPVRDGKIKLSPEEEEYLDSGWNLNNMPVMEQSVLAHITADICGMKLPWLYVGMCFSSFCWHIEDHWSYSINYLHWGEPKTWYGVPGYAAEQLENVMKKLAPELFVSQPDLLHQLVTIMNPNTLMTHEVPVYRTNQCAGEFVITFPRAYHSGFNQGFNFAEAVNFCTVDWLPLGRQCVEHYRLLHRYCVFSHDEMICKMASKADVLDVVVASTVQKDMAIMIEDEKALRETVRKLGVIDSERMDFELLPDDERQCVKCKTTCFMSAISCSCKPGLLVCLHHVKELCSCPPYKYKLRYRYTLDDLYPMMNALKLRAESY
# assayProtocol: 14CO2 capture enzymatic assay (decarboxylation of [1-14C] αKG), KDM5B
# conditionsUsed: 10 μM [1-14C] αKG, 90 μM non-labeled αKG, 50 μM peptide substrate, 37° C., 1 hour, final 1% DMSO
Please provide measured pIC50 for the entries that follow.
Conceptually, pIC50 converts a concentration in mol/L into minus its log10.

Qu. Recorded pIC50 of N#Cc1ccc(C(F)(F)F)cc1-c1cc(C#N)c(O)c(C(=O)CCC(=O)O)n1 [Example 105] , please.
Ans. 6.38

Qu. What would you report for Cc1ccccc1Cc1cc(C#N)c(O)c(C(=O)CCC(=O)O)n1 [Example 36] ?
Ans. 7.15

Qu. What would you report for COc1ccc(Cc2cc(C#N)c(O)c(C(=O)CCC(=O)O)n2)cc1 [Example 27] ?
Ans. 6.26

Qu. What would you report for N#Cc1cc(Cc2cccc(F)c2)nc(C(=O)CCC(=O)O)c1O [Example 42] ?
Ans. 6.68

Qu. What would you report for N#Cc1cc(-c2ccc(-c3ccccc3)cc2)nc(C(=O)CCC(=O)O)c1O [Example 75] ?
Ans. 7.05

Qu. What would you report for N#Cc1cc(Oc2ccccc2Cl)cc(C(=O)CCC(=O)O)c1O [Example 136] ?
Ans. 6.43

Qu. What would you report for N#Cc1cc(C#N)c(O)c(C(=O)CCC(=O)O)n1 [Example 3] ?
Ans. 6.96

Qu. What would you report for N#Cc1cc(Cc2c(Cl)cccc2Cl)nc(C(=O)CCC(=O)O)c1O [Example 32] ?
Ans. 6.62

Qu. What would you report for N#Cc1cc(-c2cccc(F)c2Cl)nc(C(=O)CCC(=O)O)c1O [Example 107] ?
Ans. 6.49
